Hey, just so you know, these numbers are from ChEMBL document CHEMBL1201862.

# System: OVCAR-3
# test_method_notes: NCI tumour cell line growth inhibition, 48 h
Calls of active or inactive are those of the source. No stated cut-off is given here; in the data, active = GI50 up to about 1.1 µM and inactive = higher.
I'd be grateful if you could share measured GI50 for these entries.

Value of GI50 reported for the compound COC(=O)/C=c1/c2ccccc2n2c1c1ccccc1[n+]2C is 3.55 µM (inactive)

Entry CCCCC1CC(c2ccc(Cl)cc2)=NO1 (stereo unspecified) , GI50 reported as > 100 µM (inactive)

For record Oc1ccc(Nc2nc(Cl)c3nc[nH]c3n2)cc1 the listed GI50 is > 100 µM (inactive)

The compound identified as O=C(NC(Cc1ccc(I)cc1)C(=O)O)c1ccc(Br)cc1 (stereo unspecified) registered its GI50 at 89.7 µM (inactive)

The reported GI50 of the compound CC1=NN(c2nc(N)nc(C/C(N)=N/O)n2)C(C)(C)C1 was > 100 µM (inactive)

The value of GI50 measured for the compound N#CC1([N+](=O)[O-])C=C1c1ccccc1 (stereo unspecified) turned out to be > 100 µM (inactive)
